assay: Blood:Plasma binding ratio of guanfacine test sample; assay type: in vitro ADME; conditions: whole blood sample; read-out: Blood:Plasma binding ratio (Ke/p)
measurement-name: blood plasma ratio

> print(dat)
                    smiles.str  reported.result
1  N=C(N)NC(=O)Cc1c(Cl)cccc1Cl              1.5
